molecular target: hCMV UL128 + UL130 + UL131A (HEK293T co-transfectant) (hCMV, UniProt P16837 1-171; P16772 1-214); assay: cell-based or functional assay
Sequence (P16837 whole entry, chain 1 of 2): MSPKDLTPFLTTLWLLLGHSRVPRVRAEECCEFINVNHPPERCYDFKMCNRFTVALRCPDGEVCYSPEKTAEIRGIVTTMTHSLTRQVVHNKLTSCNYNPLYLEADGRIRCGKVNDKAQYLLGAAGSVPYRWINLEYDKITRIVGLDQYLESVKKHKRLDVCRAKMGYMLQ
Sequence (P16772 whole entry, chain 2 of 2): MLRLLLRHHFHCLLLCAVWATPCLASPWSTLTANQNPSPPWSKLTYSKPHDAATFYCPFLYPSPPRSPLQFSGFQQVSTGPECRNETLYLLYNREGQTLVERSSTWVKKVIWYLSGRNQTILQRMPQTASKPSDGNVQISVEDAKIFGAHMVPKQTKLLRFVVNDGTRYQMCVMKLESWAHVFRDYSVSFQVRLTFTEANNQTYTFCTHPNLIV
Outcome Measure: 90% neutralization VR1814, ARPE
Please answer using a numeric value trailed by its unit.

Would you kindly share the measured 90% neutralization VR1814, ARPE for 7I13 (antibody, V domains shown, human IgG; also called 7113) VH: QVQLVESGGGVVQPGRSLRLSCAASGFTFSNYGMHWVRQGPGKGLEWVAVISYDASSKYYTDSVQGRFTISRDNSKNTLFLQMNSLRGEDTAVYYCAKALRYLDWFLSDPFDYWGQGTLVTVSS VL: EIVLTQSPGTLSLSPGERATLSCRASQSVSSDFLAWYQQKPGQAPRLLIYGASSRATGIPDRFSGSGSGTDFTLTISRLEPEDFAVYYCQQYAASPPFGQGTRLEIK ?
0.008 µg/mL

Would you kindly share the measured 90% neutralization VR1814, ARPE for 8C15 (antibody, V domains shown, human IgG; also called 8C15-biotin) VH: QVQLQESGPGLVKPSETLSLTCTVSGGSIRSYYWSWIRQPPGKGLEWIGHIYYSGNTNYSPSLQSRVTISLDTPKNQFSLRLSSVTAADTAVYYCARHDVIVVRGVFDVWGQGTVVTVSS VL: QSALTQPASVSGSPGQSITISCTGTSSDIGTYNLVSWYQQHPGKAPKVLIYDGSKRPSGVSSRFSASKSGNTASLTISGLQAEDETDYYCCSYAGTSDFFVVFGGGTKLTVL ?
0.0025 µg/mL
